Form field: EC50 (one value per entry).
TESTED_TARGET: recombinant guanylate cyclase reporter cell line (Rattus norvegicus)
Sequence (P20595 whole entry): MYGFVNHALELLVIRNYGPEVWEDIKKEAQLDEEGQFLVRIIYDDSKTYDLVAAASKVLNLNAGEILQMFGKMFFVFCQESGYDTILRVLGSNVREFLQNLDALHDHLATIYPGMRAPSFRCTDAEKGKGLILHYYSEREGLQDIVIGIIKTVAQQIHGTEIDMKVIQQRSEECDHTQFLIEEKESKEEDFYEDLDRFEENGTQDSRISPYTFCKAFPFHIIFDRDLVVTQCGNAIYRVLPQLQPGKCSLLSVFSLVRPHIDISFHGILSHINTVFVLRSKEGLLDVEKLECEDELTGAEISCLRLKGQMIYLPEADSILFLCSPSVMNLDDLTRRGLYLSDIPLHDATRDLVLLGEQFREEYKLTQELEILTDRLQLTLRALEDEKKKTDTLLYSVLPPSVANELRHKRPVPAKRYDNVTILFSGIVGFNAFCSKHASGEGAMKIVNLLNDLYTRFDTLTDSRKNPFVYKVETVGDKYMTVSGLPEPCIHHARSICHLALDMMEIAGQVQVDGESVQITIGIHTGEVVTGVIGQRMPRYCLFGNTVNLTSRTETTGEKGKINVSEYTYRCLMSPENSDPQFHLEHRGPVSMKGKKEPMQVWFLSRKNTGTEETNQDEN
Sequence (P19686 whole entry partner): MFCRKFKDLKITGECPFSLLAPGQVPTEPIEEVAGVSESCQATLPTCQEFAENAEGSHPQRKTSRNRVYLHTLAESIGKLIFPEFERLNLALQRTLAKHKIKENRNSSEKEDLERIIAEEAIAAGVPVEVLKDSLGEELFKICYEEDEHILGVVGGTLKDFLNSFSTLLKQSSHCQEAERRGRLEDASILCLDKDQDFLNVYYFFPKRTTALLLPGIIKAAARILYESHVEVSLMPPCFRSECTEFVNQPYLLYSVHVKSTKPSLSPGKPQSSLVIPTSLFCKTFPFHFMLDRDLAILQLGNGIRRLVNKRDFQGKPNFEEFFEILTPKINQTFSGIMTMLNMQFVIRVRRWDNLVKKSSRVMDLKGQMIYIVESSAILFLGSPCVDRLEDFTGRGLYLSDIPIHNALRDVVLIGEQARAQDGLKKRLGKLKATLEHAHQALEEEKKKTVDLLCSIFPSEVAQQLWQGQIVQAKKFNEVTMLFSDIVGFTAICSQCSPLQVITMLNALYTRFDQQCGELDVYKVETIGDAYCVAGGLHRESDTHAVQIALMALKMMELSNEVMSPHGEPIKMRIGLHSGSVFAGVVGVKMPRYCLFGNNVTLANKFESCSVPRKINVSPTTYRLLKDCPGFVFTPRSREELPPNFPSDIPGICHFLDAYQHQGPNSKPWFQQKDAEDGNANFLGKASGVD
ASSAY_TEXT: Effect on a recombinant guanylate cyclase reporter cell line
SETUP_CONDITIONS: half maximal effective concentration
Experimental: B-1. Effect on a Recombinant Guanylate Cyclase Reporter Cell Line The cellular activity of the compounds according to the invention was determined using a recombinant guanylate cyclase reporter cell line, as described in F. Wunder et al., Anal. Biochem. 339, 104-112 (2005).
Number only, in nM; omit the unit.

- COMPOUND: "O=C(O)c1cnn(C2CCCN(c3cc(Cl)ccc3-c3ccc(N4CCN(CC5CC5)CC4)nc3)C2)c1C(F)F (single isomer, unassigned; enantiomer 2)"
  VALUE_MEASURED: 68
- COMPOUND: "CC(C)CN1CCN(c2ccc(-c3ccc(Cl)cc3N3CC(n4ncc(C(=O)O)c4C(F)F)CC(F)(F)C3)cc2)CC1 (single isomer, unassigned; enantiomer 1) [Example 54]"
  VALUE_MEASURED: 8.4

**Query** Form field: reported EC50 of CCN1CCN(c2ccc(-c3ccc(Cl)cc3N3CCCC(n4ncc(C(=O)O)c4C(F)F)C3)cn2)CC1 (single isomer, unassigned; enantiomer 2)
**Result** 70
